Measurement description: Antiviral activity against RSV type A 492 infected in Hep2 cells assessed as reduction in virus-induced cytopathic effect after 5 days by resazurin dye based PCR analysis
Type: functional, cell-based
Assay conditions: human respiratory syncytial virus, 492, HEp-2, 120 h
Measured property: EC50 (nM)

[[record]]
item_smiles = "Cc1cnc(N2CC3(CCOCC3)C2)c(C(=O)Nc2ccc(C(=O)N3CCc4cc(C(=O)Nc5c(C)cccc5F)sc4-c4ccccc43)cc2)c1"
reading_unit = "nM"
observed = 0.46

